Below, each of the compounds is paired with its reported growth inhibition value.
# protocolText: NCI Yeast Anticancer Drug Screen. Data for the bub3 strain (AID 167)
# protocolConditions: S. cerevisiae bub3 mutant strain, at 50.0 µM, active compounds read high
# Procedure: Growth inhibition of yeast strains with defined genetic alterations is measured as a screen for potential anti-cancer activity. Selected strains with alterations in DNA damage repair or cell cycle control were exposed to compounds and growth inhibition was measured relative to vehicle treated controls. The strain used in this assay is bub3
This is part of a sample that, as a whole, favours compounds with a hit. Of some 79,000 tested, about 15% had one in any assay.
property: growth inhibition (%)

{"compound": "O=C(O)C(CS(=O)(=O)O)S(=O)(=O)O (stereo not drawn)", "obsValue": 3.15}
{"compound": "CC(C)CC([N+](C)(C)C)P(=O)([O-])O (stereo not drawn)", "obsValue": 20.9}
{"compound": "CC1(C)C(=O)N(c2ccccc2)C1c1ccccc1 (stereo not drawn)", "obsValue": 12.1}
{"compound": "CCCC1OCC(CC)([N+](=O)[O-])CO1 (stereo not drawn)", "obsValue": -0.85}
{"compound": "CSc1ncnc2nn(C3OC(CO)C(O)C3O)cc12 (stereo not drawn)", "obsValue": -9.6}
{"compound": "CC1CC(C)c2ccccc21 (stereo not drawn)", "obsValue": 0.3}
{"compound": "Nc1ccc([N+](=O)[O-])cc1C(=O)O", "obsValue": 3.05}
{"compound": "CS(=O)(=O)c1nc(Cl)c2[nH]c(Cl)nc2n1", "obsValue": 12.2}
{"compound": "CS(=O)(=O)N/N=C1/C=C2C/C(=N\\NS(C)(=O)=O)C=C2C1", "obsValue": -1.2}
{"compound": "CC(CO)C1C[C@H](O)[C@@]2(C)CC(=O)C=C(CO)[C@@H]2C1 (stereo partly drawn)", "obsValue": -7.15}
{"compound": "O=C(NC/C=C/Br)Oc1cccc2ccccc12", "obsValue": 2.85}
{"compound": "CCOC(=O)CN=NNc1ccccc1C(C)=O", "obsValue": 3.05}
{"compound": "O=C(O)C1CC=CCC1c1c2ccc(=O)cc-2oc2cc(O)ccc12 (stereo not drawn)", "obsValue": 32.9}
{"compound": "CCCNC(C#N)c1ccc(C(C#N)NCCC)cc1 (stereo not drawn)", "obsValue": -23.8}
{"compound": "Brc1cc2c(cc1C=NC1CCCCC1)OCO2", "obsValue": 18.8}
{"compound": "O=[N+]([O-])c1ccc(Nc2nc3ccccc3s2)cc1", "obsValue": 5.75}
{"compound": "CCOC(=O)C1CCC2c3[nH]c4ccccc4c3CCN2C1=O (stereo not drawn)", "obsValue": 31.1}
{"compound": "CC(=O)NC(CCCNC(=O)N(CCCl)N=O)C(=O)NCc1ccccc1 (stereo not drawn)", "obsValue": 2.65}
{"compound": "CCOC(=O)C(Cc1cn(S(=O)(=O)c2ccc(C)cc2)cn1)P(=O)(OCC)OCC (stereo not drawn)", "obsValue": -16.7}
{"compound": "O=CNC(Cc1cnc[nH]1)C(=O)O (stereo not drawn)", "obsValue": -25.5}
{"compound": "Cc1cccc(C)c1Nc1ncnc2c1cnn2C", "obsValue": 9.95}
{"compound": "CCOC(=O)c1cc2c(nc1C)-c1cc(Cl)ccc1OC2OCc1ccccc1 (stereo not drawn)", "obsValue": -12.2}
{"compound": "S=C(Cc1cccc2ccccc12)N1CCN(c2ccc(Cl)cc2)CC1", "obsValue": -9.95}
{"compound": "CN1C(=O)C(=O)N2c3ccc(Cl)cc3C3(c4ccccc4)N=CC12O3 (stereo not drawn)", "obsValue": -8.4}
{"compound": "N[C@@H]1c2c(Br)sc(Br)c2C(=O)[C@H]1Br", "obsValue": -7.05}
{"compound": "CC(=O)OCCc1ccccc1C#N", "obsValue": -4.25}
{"compound": "CCCCOC(=O)C1CCCC1=O (stereo not drawn)", "obsValue": -43.1}
{"compound": "CCN1c2ccccc2CC(CCN(C(C)C)C(C)C)(C(N)=O)c2ccccc21 (stereo not drawn)", "obsValue": -3.1}
{"compound": "COC(=O)C1=C(\\O)C[C@@]2(C)CC[C@@H](C(=O)OC)C2C/C=C\\1C(=O)OC (stereo partly drawn)", "obsValue": -8.6}
{"compound": "O=C1Cc2c([nH]c3ccc(Cl)cc23)-c2ccccc2N1", "obsValue": -7.9}
{"compound": "CCN(CC)CCCS/C(N)=N\\S(=O)(=O)c1ccc(N)cc1", "obsValue": -0.5}
{"compound": "O=C(Nc1cccc([N+](=O)[O-])c1)C1C(=O)N(c2cccc([N+](=O)[O-])c2)C(=O)/C1=N/O (stereo not drawn)", "obsValue": 0.1}
{"compound": "N#C/C(=C\\N1CC(=O)NC1=S)C(N)=O", "obsValue": -23.2}
{"compound": "CCCCCCCCCCCCCCCCCC(=O)N/N=C/c1ccccc1OC", "obsValue": -2.05}
{"compound": "O=C1CC2CCC(C1)S2=O (stereo not drawn)", "obsValue": 12.8}
{"compound": "O=c1[nH]nc(S(=O)(=O)N2CCCC2)c(=O)[nH]1", "obsValue": -4.15}
{"compound": "NS(=O)(=O)N1CN(S(N)(=O)=O)CN(S(N)(=O)=O)C1", "obsValue": 9.75}
{"compound": "CCCCCCCCCCCCCCCCCCN(C)C", "obsValue": 46.7}
{"compound": "O=C(COc1cc(Cl)c(Cl)cc1Cl)Nc1ccccc1Br", "obsValue": 2.2}
{"compound": "CCOC(=O)CCNc1nc(N)nc(C)c1NC=O", "obsValue": 5.9}
{"compound": "C=C(CCCC(=C)C(N)=O)C(N)=O", "obsValue": -0.85}
{"compound": "C#[N+]CCOP(=O)(OCC1OC(n2cc(C)c(=O)[nH]c2=O)CC1N=[N+]=[N-])O[C@H]1CC[C@@]2(C)C(=CC[C@H]3[C@@H]4CC[C@H](C(C)/C=C/C(CC)C(C)C)[C@@]4(C)CC[C@@H]32)C1 (stereo partly drawn)", "obsValue": 7.5}
{"compound": "CC(C)NCCO", "obsValue": 0.3}
{"compound": "Cc1ccc(C(=O)NNC(=O)c2ccc3ccccc3c2)cc1", "obsValue": -16.6}
{"compound": "CCCC1OC1(CC)C(=O)OCC(CC)(COC(=O)C1(CC)OC1CCC)COC(=O)C1(CC)OC1CCC (stereo not drawn)", "obsValue": 4.35}
{"compound": "COC(=O)C(C)(N)Cc1ccc(O)c(C)c1 (stereo not drawn)", "obsValue": -4.05}
{"compound": "Cc1cn(CCCn2cnc3c(N)ncnc32)c(=O)[nH]c1=O", "obsValue": -31.4}
{"compound": "COc1c2c(cc3c1[C@@H]1Oc4c(ccc(O)c4CC=C(C)C)[C@@H]1CO3)OC(C)(C)C=C2", "obsValue": 44.5}
